- SYSTEM: Neuronal acetylcholine receptor subunit alpha-7 (Rattus norvegicus, UniProt Q05941)
- Sequence (Q05941 whole entry): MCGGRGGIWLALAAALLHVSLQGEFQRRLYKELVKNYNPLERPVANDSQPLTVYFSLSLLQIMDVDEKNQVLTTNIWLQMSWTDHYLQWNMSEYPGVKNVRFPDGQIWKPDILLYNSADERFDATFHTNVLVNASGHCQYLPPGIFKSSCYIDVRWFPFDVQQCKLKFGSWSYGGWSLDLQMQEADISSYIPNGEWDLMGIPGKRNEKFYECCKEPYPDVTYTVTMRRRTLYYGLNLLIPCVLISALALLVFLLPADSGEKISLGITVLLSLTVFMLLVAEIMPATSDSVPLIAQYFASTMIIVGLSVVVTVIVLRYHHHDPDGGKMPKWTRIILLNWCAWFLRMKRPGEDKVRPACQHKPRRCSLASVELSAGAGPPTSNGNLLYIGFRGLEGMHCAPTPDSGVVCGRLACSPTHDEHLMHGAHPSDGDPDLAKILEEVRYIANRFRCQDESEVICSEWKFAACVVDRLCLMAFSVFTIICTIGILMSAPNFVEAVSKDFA
- TEST_PROTOCOL: Displacement of [3H]methyllycaconitine from Sprague-Dawley rat brain alpha7 nAChR after 120 mins by liquid scintillation counting analysis
MEASUREMENT_NAME: Ki

What value of Ki has been reported for the following compound? `O=C(Cc1cccnc1)N1C[C@@H]2CNC[C@@H](C2)C1`
> 1 µM

Query `O=c1c(-c2ccncc2)ccc2n1C[C@@H]1CNC[C@H]2C1` next
> 10 µM

Same thing, different compound: `O=C(/C=C/c1ccco1)N1C[C@@H]2CNC[C@@H](C2)C1`
> 1 µM

Same read-out for `COc1cc(CCC(=O)N2C[C@@H]3CNC[C@@H](C3)C2)cc(OC)c1OC` ?
> 10 µM

====

- SYSTEM: Nicotinic acetylcholine receptor alpha1/beta1/epsilon/delta (Mus musculus) (UniProt P04756+P09690+P02716+P20782)
- TEST_PROTOCOL: Agonist activity at mouse muscle alpha1beta1epsilondelta nAChR expressed in Xenopus oocytes at 1 uM incubated for 8 secs followed by compound washout measured after 241 secs by two-electrode voltage clamp technique
- Type: cell-based
Active and inactive are the calls of the source. No cut-off for these calls is given here.

# SAMPLE_SMILES, Activity
measured = [
    ("O=C(/C=C/c1cccnc1)N1C[C@@H]2CNC[C@@H](C2)C1", "inactive"),
    ("O=C(/C=C/c1ccc2c(c1)OCO2)N1C[C@@H]2CNC[C@@H](C2)C1", "inactive"),
    ("O=C(CCc1ccccc1)N1C[C@@H]2CNC[C@@H](C2)C1", "inactive"),
    ("O=C(Cc1ccncc1)N1C[C@@H]2CNC[C@@H](C2)C1", "inactive"),
]

Data provenance: ChEMBL document CHEMBL3091445
